B1: CASP6 (parent)
chain: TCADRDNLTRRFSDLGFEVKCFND

# Variants of: B1
# ASSAY_NAME: protein stability index of a GFP-peptide fusion (GPS, HEK-293T) (PSI 1-6); higher = more stable;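 note: lentivirally expressed fusions sorted by FACS into six bins by GFP to DsRed ratio, PSI derived from sequencing read proportions per bin multiplied by bin number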
# EXPERIMENTAL_CONTEXT: c terminus: a fixed tail appended
REPORTED_PROPERTY: protein stability index
No unit in the answer, only the number.

Example entries and their recorded answers appear below.
>>> df
   sequence_variant        reported_property  measured_value
0               R5A  protein stability index            4.37
1               C2G  protein stability index            3.47
2              K20S  protein stability index            3.17
3               N7P  protein stability index             3.4
4              F22G  protein stability index            3.37
5              D14N  protein stability index             3.8

Q. # get_value(readout='protein stability index', item= A3W )
A. 3.21

Q. // repeat for A3C and report
A. 2.84

Q. // repeat for F22N and report
A. 4.58

Q. // repeat for N7E and report
A. 3.55

Q. // repeat for T1D and report
A. 4.37

Q. // repeat for D6H and report
A. 3.08

Q. // repeat for V19G and report
A. 4.08

Q. // repeat for A3N and report
A. 3.38

Q. // repeat for N7M and report
A. 3.35

# credit: the supplement of paper PMC10567573
